Biological target: erbB2 tyrosine kinase (Homo sapiens, UniProt P04626)
Construct: Recombinant intracellular fragments of EGFR, erbB2 and erbB4
Sequence (P04626 676-1255 limits assumed): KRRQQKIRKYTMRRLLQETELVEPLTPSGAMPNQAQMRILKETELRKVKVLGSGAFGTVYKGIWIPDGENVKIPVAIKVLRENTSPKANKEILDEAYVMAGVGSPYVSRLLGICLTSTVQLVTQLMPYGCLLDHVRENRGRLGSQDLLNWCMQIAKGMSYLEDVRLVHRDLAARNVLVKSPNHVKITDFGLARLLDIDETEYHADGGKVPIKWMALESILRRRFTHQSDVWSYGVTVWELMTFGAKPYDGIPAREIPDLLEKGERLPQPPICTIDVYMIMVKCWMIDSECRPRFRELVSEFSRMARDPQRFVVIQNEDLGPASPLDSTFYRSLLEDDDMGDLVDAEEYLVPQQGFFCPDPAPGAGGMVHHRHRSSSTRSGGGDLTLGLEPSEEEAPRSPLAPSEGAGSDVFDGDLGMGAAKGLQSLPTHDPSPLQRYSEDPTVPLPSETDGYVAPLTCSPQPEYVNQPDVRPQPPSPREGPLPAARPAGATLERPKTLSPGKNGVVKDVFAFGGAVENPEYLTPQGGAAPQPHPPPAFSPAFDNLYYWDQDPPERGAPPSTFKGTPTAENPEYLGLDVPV
Test: Protein tyrosine kinase phosphorylation assay, Test (a), erbB2
Settings: ATP at Km concentration; read-out: IC50 Test (a): Inhibition of erbB2 tyrosine kinase protein phosphorylation
Each entry below carries its recorded pIC50.
Friendly reminder that pIC50 comes from taking -log10 of the concentration in mol/L.

Compound: C[C@@H](Oc1cccc2ncnc(Nc3ccc4c(ccn4Cc4ccccn4)c3)c12)C(=O)N(C)CCO
pIC50: 7.96

Request: Which measured pIC50 belongs to C[C@@H](Oc1cccc2ncnc(Nc3ccc4c(ccn4Cc4ccccn4)c3)c12)C(=O)N(C)C , tested on erbB2 tyrosine kinase (Homo sapiens, UniProt P04626)?
Result: 7.82
